Taken from a melting point compilation (Tetko et al.; mined from patent text by program, amines drawn as free bases though some values may be those of a salt).

measuredProperty: melting point

Examples from the recorded data:
# input compound: Nc1nc(F)cc(CF)n1 ; wanted: its melting point
189 to 190 °C

Dear colleague, I am looking for the recorded melting point of the following compound: CN1CC(c2cc[nH]n2)CC2c3cccc4[nH]cc(c34)CC21 (stereo not given)
160 to 162 °C

What melting point value was documented for this compound, CS(=O)(=O)Nc1cccc(Nc2nc(NCc3cccnc3)c3nc[nH]c3n2)c1 ?
144 to 147 °C

---
// lookup melting point for CCOC(=O)c1[nH]c2cc(Cl)cc(Cl)c2c1N(Cc1ccccc1)C(=O)c1ccccc1
174 to 175 °C

Fill in the blank: the reported melting point of CC(C)N(O)C(=O)C=Cc1ccc2ccccc2c1 is ____.
184 to 185 °C

---

melting point values for the compounds below.

# lookup: melting point of CC12CCC3c4ccc(OCc5ccccc5)cc4CCC3C1CCC2=O (stereo not drawn)
126 to 127 °C

I would be grateful if you could share the reported melting point for CSCc1nc(C(C)(C)O)c(C(=O)O)n1Cc1ccc(-c2ccccc2-c2nnn[nH]2)cc1 .
172 to 181 °C

Any idea what melting point was measured for O=C(O)CCc1cc2ccccc2s1 ?
140 to 142 °C

For the compound shown here, CCc1nn(Cc2cccnn2)c2c(=O)[nH]c(-c3cc(S(C)(=O)=O)ccc3OCC(C)C)nc12 , give the reported melting point.
231 to 234 °C

Continuing:
Look up melting point for this compound: O=S(=O)(Oc1ccc2sccc2c1)c1ccccc1
80 to 81 °C

Reported melting point, compound CC(O)c1cnc(C(F)(F)F)nc1 (stereo not drawn) : ____
43 to 45 °C

Find the recorded melting point belonging to COc1ccccc1N1CCN(S(=O)(=O)c2ccc(/C=C/C(=O)NO)cc2)CC1 and report it.
225 to 226 °C

Given the entry COC(=O)CCC1CCC(=O)N1 (stereo not drawn) , report its measured melting point.
52 to 53 °C

# query: melting point of entry Nc1ncnc(N2CCc3ccccc3CC2)c1[N+](=O)[O-]
> 200 °C

Recorded melting point for NC(=O)c1ccc(-c2ccc(-c3ccn(C(CC(=O)O)C(=O)NC(CO)Cc4ccccc4)c3)cc2)cc1 (stereo not drawn) , please?
218 to 220 °C

What value of melting point has been recorded for this entry: NC1([C@@H]2CCN(c3ccc4c(=O)c(C(=O)O)cn([C@@H]5C[C@@H]5F)c4c3Cl)C2)CC1
128 to 130 °C

Any idea what its melting point is? The compound is CC(C)c1ccc(-c2ccc(/C=C/C(=O)O)s2)cc1
216 to 219 °C

Given the compound CCOC(=O)CNC(=O)c1oc2cc(-c3ccc(Cn4c(C)nc5ccccc54)cc3)ccc2c1C , what is its reported melting point?
184 to 186 °C

Value lookup for melting point; key = COc1ccc(CNc2c(C)c(C)c3c(c2C)C(c2ccc(C(C)C)cc2)C(C)(C)O3)cc1 (stereo not drawn)
95 to 96 °C

Which melting point value belongs to CN1CN(C(=O)c2c(F)cccc2F)C(=O)N(c2ccc(SC(F)F)cc2F)C1 ?
135 to 137 °C

Tell me the measured melting point of CCCCN1CC=C(c2c[nH]c3ccc(NS(C)(=O)=O)cc23)CC1 , please.
202 to 204 °C

Which melting point is reported for this compound? CCCCC(O)c1cccc(O)c1 (stereo not drawn)
120 to 122 °C

Returns the measured melting point for the input compound. Input: CC(=O)c1ccc(-c2cccc(-c3nc(C(C)C)[nH]c3-c3cccc(C)n3)c2)cc1
84 to 87 °C
